Quick list: inhibition at 50 µM per entry.
system: TNF-α; assay: Inhibition of TNF-α production by stimulated human peripheral blood leukocytes in vitro; type: cell-based; conditions: Homo sapiens, Leukocyte, 50 μM; PMA-stimulated PBL; read-out: Percentage of inhibition of TNF-α production
measured-quantity: inhibition at 50 µM

molecule=CC[C@H]1OC(=O)[C@H](C)[C@@H](O[C@H]2C[C@@](C)(OC)[C@@H](OC(=O)CCN(C)C)[C@H](C)O2)[C@H](C)[C@@H](O[C@@H]2O[C@H](C)C[C@H](N(C)C)[C@H]2O)[C@](C)(OC)C[C@@H](C)C(=O)N[C@H](C)[C@@H](O)[C@]1(C)O measured_quantity="inhibition at 50 µM" result=97%
molecule="CC[C@H]1OC(=O)[C@H](C)[C@@H](O[C@H]2C[C@@](C)(OC)[C@@H](O)[C@H](C)O2)[C@H](C)[C@@H](O[C@@H]2O[C@H](C)C[C@H](N(C)C)[C@H]2O)[C@](C)(OC)C[C@@H](C)C(=O)[C@H](C)[C@@H](O)[C@]1(C)O [clarithromycin, reference compound]" measured_quantity="inhibition at 50 µM" result=0%
molecule="CC[C@H]1OC(=O)[C@H](C)[C@@H](O[C@H]2C[C@@](C)(OC)C(OC(=O)CCN(CC)CC)[C@H](C)O2)[C@H](C)[C@@H](O[C@@H]2O[C@H](C)C[C@H](NC)[C@H]2O)[C@](C)(O)C[C@@H](C)CN(C)[C@H](C)[C@@H](O)[C@]1(C)O (stereo partly drawn)" measured_quantity="inhibition at 50 µM" result=95%
molecule="CC[C@H]1OC(=O)[C@H](C)C(O[C@H]2C[C@@](C)(OC)[C@@H](OC(=O)CCN(CC)CC)[C@H](C)O2)[C@H](C)[C@@H](O[C@@H]2O[C@H](C)C[C@H](N(C)C)[C@H]2O)[C@](C)(OC)C[C@@H](C)C(=O)[C@H](C)[C@H](O)[C@]1(C)O (stereo partly drawn)" measured_quantity="inhibition at 50 µM" result=86%
molecule=CC[C@H]1OC(=O)[C@H](C)[C@@H](O[C@H]2C[C@@](C)(OC)[C@@H](OC(=O)CCN(CC)CC)[C@H](C)O2)[C@H](C)[C@@H](O[C@@H]2O[C@H](C)C[C@H](N(C)C)[C@H]2O)[C@](C)(OC)C[C@@H](C)NC(=O)[C@H](C)[C@@H](O)[C@]1(C)O measured_quantity="inhibition at 50 µM" result=83%
molecule=CC[C@H]1OC(=O)[C@H](C)[C@@H](O[C@H]2C[C@@](C)(OC)[C@@H](OC(=O)CCN(CC)CC)[C@H](C)O2)[C@H](C)[C@@H](O[C@@H]2O[C@H](C)C[C@H](N(C)C)[C@H]2O)[C@](C)(O)C[C@@H](C)CN(C)[C@H](C)[C@@H](O)[C@]1(C)O measured_quantity="inhibition at 50 µM" result=90%
